- Tested on: HFF
- Assay text: Effective concentration required to inhibit cowpox virus plaque formation in human foreskin fibroblast (HFF) cells
- Assay type: functional, cell-based
Reported EC50 values for a set of compounds
Assay endpoint: EC50 (µM)

NC(=S)/N=N/c1c(O)[nH]c2ccccc12 : 60
CN1C(=O)/C(=N\NC(N)=S)c2ccccc21 [METHISAZONE] : 14
Nc1ccn(C[C@@H](CO)OCP(=O)(O)O)c(=O)n1.O.O [CIDOFOVIR] : 38
